Origin of measurements: PubChem BioAssay (NCI)

System: OVCAR-3 ovarian
Assay: NCI-60 one-dose screen, 48 h
Settings: 10 µM unless noted
This is part of a sample that, as a whole, favours compounds with a hit. Of some 83,000 tested, about 20% had one in any assay. Activity calls are given as the source filed them. How the source made its calls: active means growth percent below 10; inactive means the rest.
In this exercise, the only acceptable responses are active, inactive

Solved entries (count: 6):
{"Compound": "COc1cc(/C=C/C(=O)/C=C/c2ccc(-n3ccnc3C)cc2)ccc1O", "Label Class": "inactive"}
{"Compound": "O=C(O)CSCc1nnc2n(Cc3ccccc3)c(=O)c3c4c(sc3n12)CCCC4", "Label Class": "inactive"}
{"Compound": "CC1Cc2c(Cl)ncnc2N(C)c2ccc(Cl)cc21 (stereo unspecified)", "Label Class": "active"}
{"Compound": "C=C(C)[C@@H]1CC[C@]2(C)[C@H](CC=C3[C@@H]4[C@@H](C)[C@H](C)CC[C@]4(C(N)=O)CC[C@]32C)[C@@]1(C)CCC#N", "Label Class": "active"}
{"Compound": "O=C(Nc1cc(-c2cccnc2)nc(NCCCN2CCOCC2)n1)c1cc(Br)cc(C(F)(F)F)c1", "Label Class": "inactive"}
{"Compound": "COc1ccc(-c2c(C)nn3c(NCCN4CCOCC4)cc(C)nc23)cc1OC", "Label Class": "inactive"}

IN: Outcome logged for CC/C=C(\C)C(CCC)(CN=O)C(=O)OCC (stereo unspecified) in this assay:
OUT: inactive

IN: Outcome logged for Cn1cc(-c2noc(C(=O)c3cn(C)c4ncccc34)n2)c2ccccc21 in this assay:
OUT: inactive

IN: Outcome logged for CC(C)C1=NOC(=O)C1=Cc1cn(-c2ccco2)nc1-c1ccccc1 in this assay:
OUT: inactive

IN: Outcome logged for N/C(=N\c1nc2ccccc2[nH]1)NC(=O)Cc1cccc2ccccc12 in this assay:
OUT: inactive

IN: Outcome logged for COc1cc(Cl)cc(-c2nn(C(=O)NS(=O)(=O)c3ccccc3)cc2-c2ccncc2)c1 in this assay:
OUT: inactive
